assay: folding stability dG unfold (combined trypsin and chymotrypsin); higher = more stable
Measure name: folding stability dG unfold (kcal/mol)
Give bare numbers, in kcal/mol.

Record excerpt, results attached:
Chain sequence: SAGGSAGMNSEITLTIPVPHPRDEEGRVLPLSPEAIEKELKEKGYNVKIKEVKTSPSTITVTLKIISAGGSA [r15_225_JUSTAS]
folding stability dG unfold / kcal/mol: 0.957
//
Chain sequence: SAGGSASMSKTTTETSPDSETTTTTYYPNGTVTTTKTTTVGEGTTTTTTTTKVLFIPGPGVLVPEPSAGGSA [r15_746_JUSTAS]
folding stability dG unfold / kcal/mol: 0.259
//
Chain sequence: SAGGSAKKVIVIEVKPGEKITITINGKKVEIVEVKPEGETFLIRNKDTGEIYKITVVDGKVVIEKLSAGGSA [r15_235_TrROS_Hall]
folding stability dG unfold / kcal/mol: 3.74
//
Chain sequence: SAGGSMTTITLTLEFELDENGEVDPEKIEAEAEKIKEENPEIKELTVEVKRDPNSNKITVTVTAKVPSAGGS [r8_258_JUSTAS]
folding stability dG unfold / kcal/mol: 3.06
//
Chain sequence: SAGGSAGGSASMGVVDEFVVYVPGEKGEEVEVKVYKDPNSDRYIVEIKGKKIPVTDEKKALLSAGGSAGGSA [r18_67_JUSTAS]
folding stability dG unfold / kcal/mol: 0.447
//
Chain sequence: SAGMPPPEEVFVVKVRFDGKELTLVVRVPPGMSAEEVAKKLAEELRKKFGPDIEVEVRRVSREELLEALSAG [r5_583_TrROS_Hall]
folding stability dG unfold / kcal/mol: 3.23

Now look at this entry.
Req: // lookup folding stability dG unfold for SAGGMVTTESTKPYLLPNGTKATLTTTTTLYPDGTVVSPTTFTLTFPDGSSTTTTTTTVTTLASGALSAGGS [r16_505_JUSTAS]
Resp: 0.727

Cited source: the supplement of paper PMC12764529
